Origin of values: patent US20230391845A1

Listed binders paired with reported hGLP-1R CRE Luc EC50 (pM)
# STUDY SYSTEM: human glucagon-like peptide 1 receptor (human, UniProt P43220 24-463)
# PROCEDURE TEXT: cell-based or functional assay
Where no end group is shown, it is not given here. [ ]: non-standard residue; d: D form. Aib = CC(C)(N)C(=O)O
PROPERTY LABEL: hGLP-1R CRE Luc EC50 (pM)

>>> reported_result("Y[Aib]HGTFTSDYSIYLEKQAA[Aib]EFVQWLLEGGPSSGAPPPS-NH2 (not fully specified (residue 16); printed as Y-Aib-HGTFTSDYSIYLE-K[(2S)-2-amino-6-[[(2S)-2-amino-6-[[(4S)-4-carboxy-4-(19-carboxynonadecanoylamino)butanoyl]amino]hexanoyl]amino]hexanoyl]-QAA-Aib-EFVQWLLEGGPSSGAPPPS-NH2) [Compound No. 18]")
106
>>> reported_result("H[Aib]HGTFTSDYSIYLEKKAA[Aib]EFVQWLLEGGPSSGAPPPS-NH2 (not fully specified (residue 16); printed as H-Aib-HGTFTSDYSIYLE-K[(2S)-2-amino-6-[[(2S)-2-amino-6-[[(4S)-4-carboxy-4-(19-carboxynonadecanoylamino)butanoyl]amino]hexanoyl]amino]hexanoyl]-KAA-Aib-EFVQWLLEGGPSSGAPPPS-NH2) [Compound No. 33]")
3.3
